# credit: paper PMC7587356

target.or.system: SARS-CoV-2 3CLpro (Severe acute respiratory syndrome coronavirus 2, UniProt P0DTD1)
assay.remarks: biochemical
Type: biochemical
Parameters: unit not given here
run.parameters: sheet LOPAC_screen_w_protease; LOPAC1280 primary screen at 5 µM, with protease; replicate 2
attribute.measured: Replicate_2

* COc1ccc(NC(=O)c2ccc(-c3ccc(-c4noc(C)n4)cc3C)cc2)cc1N1CCN(C)CC1.Cl [GR 127935 hydrochloride] | 0.6934
* O=C(O)/C=C\C(=O)O.O=C(O)/C=C\C(=O)O.c1ccc2nc(N3CCNCC3)ccc2c1 [Quipazine dimaleate] | 0.3411
* CN1CCN(c2nc3cc(C(F)(F)F)ccc3n3cccc23)CC1.O=C(O)/C=C\C(=O)O [CGS-12066A maleate] | -0.2648
* Cl.c1ccc(CN2CCC3(CCCc4ccccc43)CC2)cc1 [L-687,384 hydrochloride] | 0.7425
* C[C@H](N)CN1CCc2ccc(Br)cc21.C[C@H](N)CN1CCc2ccc(Br)cc21.O=C(O)/C=C/C(=O)O [VER-3323 hemifumarate salt] | 0.8545
* COc1cc(C(O)CO)ccc1OS(=O)(=O)[O-].[K+] (stereo not shown) [MHPG sulfate potassium] | -1.003
* Br.Br.N=C(N)SCCc1ccc(CCSC(=N)N)cc1 [1,4-PBIT dihydrobromide] | 0.7055
